Tested on: ASPC1
Experiment: Cytotoxicity against human Aspc-1 cells incubated for 72 hrs by MTT assay
Assay type: functional, cell-based
Settings: ASPC1, 72 h
pIC50: −log10 of the molar value.
ATTRIBUTE MEASURED: pIC50

| STRUCTURE STRING | ATTRIBUTE MEASURED | VAL |
| --- | --- | --- |
| CC[C@@H]1OC(=O)C[C@@](O)(C/C=C/C=C(\C)[C@H]2OC(=O)CC/C=C(\C)[C@@H](C)[C@H](O)[C@H](C)[C@@H](OC(N)=O)/C=C\C=C/[C@@H]2C)[C@H]1C | pIC50 | 7.34 |
| C=C1[C@@H](C)[C@H](O)[C@H](C)[C@@H](OC(N)=O)/C=C\C=C/[C@H](C)[C@@H](/C(C)=C/C=C/C[C@]2(O)CC(=O)O[C@@H](CC)[C@@H]2C)OC(=O)CC[C@H]1OO | pIC50 | 5.43 |
| CC[C@@H]1OC(=O)C[C@@H](C/C=C/C=C(\C)[C@H]2OC(=O)CC/C=C(\C)[C@@H](C)[C@H](O)[C@H](C)[C@@H](OC(N)=O)/C=C\C=C/[C@@H]2C)[C@H]1C | pIC50 | 7.37 |
